system: UACC-62; assay: Cytotoxicity against human UACC62 cells after 48 hrs by sulforhodamine B assay; assay type: functional; settings: Homo sapiens, UACC-62, 48 h
# GI50 values compiled below
result.type: GI50 (µM)

smiles_str=Clc1ccc2c(NCCCNCCNc3ccnc4cc(Cl)ccc34)ccnc2c1 endpoint_unit=µM recorded_number=2.07
smiles_str=Clc1ccc2c(NCCCNCCNCCCNc3ccnc4cc(Cl)ccc34)ccnc2c1 endpoint_unit=µM recorded_number=1.06
smiles_str=Clc1ccc2c(NCCNCCNCCNc3ccnc4cc(Cl)ccc34)ccnc2c1 endpoint_unit=µM recorded_number=2.87
smiles_str=CN(CCCNc1ccnc2cc(Cl)ccc12)CCCNc1ccnc2cc(Cl)ccc12 endpoint_unit=µM recorded_number=0.36

----------
test: Aqueous solubility of the compound in phosphate buffer at pH 5.5 after 24 hrs by HPLC analysis; type: physicochemical
result.type: solubility at 24 h (mM)

smiles_str=Clc1ccc2c(NCCNCCNc3ccnc4cc(Cl)ccc34)ccnc2c1 result_type="solubility at 24 h" recorded_number=32
smiles_str=Cc1cccc2nccc(NCCNCCNc3ccnc4cccc(C)c34)c12 result_type="solubility at 24 h" recorded_number=29.5
smiles_str=Cc1cccc2nccc(NCCNCCNCCNc3ccnc4cccc(C)c34)c12 result_type="solubility at 24 h" recorded_number=38.9
smiles_str=Clc1ccc2c(NCCCNCCNCCCNc3ccnc4cc(Cl)ccc34)ccnc2c1 result_type="solubility at 24 h" recorded_number=18.9
smiles_str=c1ccc2c(c1)nc(NCCCNCCNc1nc3ccccc3n3cccc13)c1cccn12 result_type="solubility at 24 h" recorded_number=28.6
smiles_str=c1ccc2c(c1)nc(NCCNCCNCCNc1nc3ccccc3n3cccc13)c1cccn12 result_type="solubility at 24 h" recorded_number=34
smiles_str=CN(CCCNc1nc2ccccc2n2cccc12)CCCNc1nc2ccccc2n2cccc12 result_type="solubility at 24 h" recorded_number=30.2
smiles_str=Cc1cccc2nccc(NCCCN(C)CCCNc3ccnc4cccc(C)c34)c12 result_type="solubility at 24 h" recorded_number=31.2
smiles_str=Clc1ccc2c(NCCNCCNCCNc3ccnc4cc(Cl)ccc34)ccnc2c1 result_type="solubility at 24 h" recorded_number=38.7
smiles_str=CN(CCCNc1ccnc2cc(Cl)ccc12)CCCNc1ccnc2cc(Cl)ccc12 result_type="solubility at 24 h" recorded_number=32.9
smiles_str=Clc1ccc2c(NCCCNCCCNc3ccnc4cc(Cl)ccc34)ccnc2c1 result_type="solubility at 24 h" recorded_number=28.9
smiles_str=Clc1ccc2c(NCCCNCCNc3ccnc4cc(Cl)ccc34)ccnc2c1 result_type="solubility at 24 h" recorded_number=23.5

----------
assay: Aqueous solubility of the compound in phosphate buffer at pH 5.5 after 24 hrs by HPLC analysis; type: physicochemical
result.type: solubility at 24 h

smiles_str=Cc1cccc2nccc(NCCCNCCNc3ccnc4cccc(C)c34)c12 result="28.2 mM"
smiles_str=c1ccc2c(c1)nc(NCCNCCNc1nc3ccccc3n3cccc13)c1cccn12 result="27.5 mM"
smiles_str=Cc1cccc2nccc(NCCCNCCNCCCNc3ccnc4cccc(C)c34)c12 result="36.5 mM"
smiles_str=c1ccc2c(c1)nc(NCCCNCCCNc1nc3ccccc3n3cccc13)c1cccn12 result="24.1 mM"

----------
test system: Plasmodium falciparum; experiment: Antimalarial activity against asexual erythrocyte stages of chloroquine-resistant Plasmodium falciparum Dd2; assay type: functional, organism-based
pIC50: −log10 of the molar value.
# pIC50 values compiled below
result.type: pIC50

smiles_str=c1ccc2c(c1)nc(NCCCNCCNc1nc3ccccc3n3cccc13)c1cccn12 recorded_number=5.86
smiles_str=CN(CCCNc1nc2ccccc2n2cccc12)CCCNc1nc2ccccc2n2cccc12 recorded_number=6.14
smiles_str=Cc1cccc2nccc(NCCNCCNCCNc3ccnc4cccc(C)c34)c12 recorded_number=5.96
